Overview of reported Control across a group of compounds:
target: Calcium-activated potassium channel subunit alpha-1 (Homo sapiens) (UniProt Q12791); experiment: Effect on outward K+ current using two-electrode voltage clamp recording from Xenopus laevis oocyte expressing cloned hSlo at 20 uM; format: functional
Sequence (Q12791 whole entry): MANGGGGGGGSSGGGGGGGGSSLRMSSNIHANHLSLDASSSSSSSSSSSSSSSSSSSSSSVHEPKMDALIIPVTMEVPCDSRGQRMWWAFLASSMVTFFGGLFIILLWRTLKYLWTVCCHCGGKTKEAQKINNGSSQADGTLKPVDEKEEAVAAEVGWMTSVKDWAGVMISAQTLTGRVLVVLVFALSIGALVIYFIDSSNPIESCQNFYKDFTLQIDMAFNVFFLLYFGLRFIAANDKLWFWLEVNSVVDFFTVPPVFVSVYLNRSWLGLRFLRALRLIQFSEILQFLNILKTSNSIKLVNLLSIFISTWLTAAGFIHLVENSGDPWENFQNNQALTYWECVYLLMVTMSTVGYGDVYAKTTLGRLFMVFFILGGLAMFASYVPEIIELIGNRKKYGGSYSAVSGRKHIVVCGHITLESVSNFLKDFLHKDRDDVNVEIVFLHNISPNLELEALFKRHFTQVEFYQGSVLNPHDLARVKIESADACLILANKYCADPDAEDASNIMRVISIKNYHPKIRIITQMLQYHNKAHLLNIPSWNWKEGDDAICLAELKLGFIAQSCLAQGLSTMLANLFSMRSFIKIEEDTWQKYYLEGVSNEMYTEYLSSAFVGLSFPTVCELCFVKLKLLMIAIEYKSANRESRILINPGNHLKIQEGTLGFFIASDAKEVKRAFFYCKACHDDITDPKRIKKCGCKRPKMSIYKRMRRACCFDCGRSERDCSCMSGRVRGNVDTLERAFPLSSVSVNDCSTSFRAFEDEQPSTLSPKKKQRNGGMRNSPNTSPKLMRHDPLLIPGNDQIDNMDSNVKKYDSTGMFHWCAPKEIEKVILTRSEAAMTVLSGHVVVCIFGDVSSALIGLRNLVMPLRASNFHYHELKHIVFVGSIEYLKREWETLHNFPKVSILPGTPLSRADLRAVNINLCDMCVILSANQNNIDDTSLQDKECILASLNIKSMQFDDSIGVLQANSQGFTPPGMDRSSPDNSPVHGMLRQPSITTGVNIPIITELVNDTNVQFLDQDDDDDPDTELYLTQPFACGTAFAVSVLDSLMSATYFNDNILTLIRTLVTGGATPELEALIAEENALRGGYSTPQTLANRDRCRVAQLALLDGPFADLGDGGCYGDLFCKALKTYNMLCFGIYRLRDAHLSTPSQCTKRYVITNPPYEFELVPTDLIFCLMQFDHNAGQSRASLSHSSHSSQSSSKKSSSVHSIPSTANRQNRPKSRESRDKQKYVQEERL
assay.readout: Control (%)

> print(dat)
                                   compound  assay.readout  units  measured.result
1  O=C1Nc2cc(C(F)(F)F)ccc2C1(O)c1cccc(Cl)c1 (racemic)        Control      %             96.7
2  COc1ccc(Cl)cc1[C@]1(O)C(=O)Nc2cc(C(F)(F)F)ccc21 (stereo in doubt; (+)-4c)        Control      %              117
3  COc1ccc(Cl)cc1C1(O)C(=O)Nc2cc(C(F)(F)F)ccc21 (racemic)        Control      %              120
4  COc1ccc(Cl)cc1[C@]1(O)C(=O)Nc2cc(C(F)(F)F)ccc21 (stereo in doubt; (-)-4c)        Control      %              116
